Assay: Rat pharmacokinetic experiment
Type: in vivo
Details: male, SD, rat, brain / plasma, po, 1 mg/kg; read-out: B/P (proportion of compounds entering the brain)
Method: The maximum plasma concentration (Cmax) in the rat pharmacokinetic experiment was used to evaluate the absorption of the compounds in rat in vivo. The experimental compound was dissolved and then orally administered by gavage (p.o.) to male SD rats. […] The LM-MS/MS method was used to determine drug concentrations in plasma and brain tissue, and the proportion of compounds entering the brain (B/P) was calculated based on the AUC of the compound. […]
Please respond with reported Kp for every item in the list.
No unit in the answer, please; the number alone is enough.

Return value of Kp for input `Cc1nnn(-c2ccc(C(F)F)cc2)c1COc1ccc(N2CCN(C)C(=O)C2)nn1` , no commentary. 0.0336

Return value of Kp for input `Cc1nnn(-c2ccc(C(F)F)cc2)c1COc1ccc(N2CCNC(=O)C2)cn1` , no commentary. 0.045
